Consider the following binders and their measured pKd readings.
molecular target: SARS-CoV-2 Receptor Binding Domain (RBD) protein (SARS-CoV-2); experiment: SPR (Carterra LSA), scFv captured via anti-V5, RBD as analyte
pKd: −log10 of the molar value.

Below, each entry is followed by its recorded pKd result.
BINDER	QUANTITY	TEST_RESULT
COVID19_P11_D08 (scFv, V domains shown) VH: QVQLVQSGAEVKKPGASVKVSCKASGYTFTENEMHWVRQAPGQGLEWMGIINPSGGSTSYAQKFQGRVTMTRDTSTSTVYMELSSLRSEDTAVYYCARDSGVDTATLRYYYYGMDVWGQGTTVTVSS VL: DIQMTQSPSSLSASVGDRVTITCQASQDISKYLNWYQQKPGKAPKLLIYGASTLSDGVPSRFSGSGSGTDFTLTISSLQPEDFATYYCQQGYSTPYSFGQGTKLEIKR	pKd	> 7.30
COVID19_P24_C06 (scFv, V domains shown) VH: QVQLVQSGAEVKKPGASVKVSCKASGYIFTSYPIHWVRQAPGQGLEWMGWMNPNSGNTGYAQKFQGRVTMTRDTSTSTVYMELSSLRSEDTAVYYCARDRGSYDTDAFDIWGQGTMVTVSS VL: DIQMTQSPSSLSASVGDRVTITCRASQDISNYLNWYQQKPGKAPKLLIYAASNLQSGVPSRFSGSGSGTDFTLTISSLQPEDFATYYCQQANSFPSTFGQGTKLEIKR	pKd	> 7.30

Then there is this binder:
(Q) Any idea what pKd was measured for COVID19_P24_A09 (scFv, V domains shown) VH: QVQLVQSGAEVKKPGASVKVSCKASGYTFTDYYMQWVRQAPGQGLEWMGWIDPHSGATNYAHSFQGRVTMTRDTSTSTVYMELSSLRSEDTAVYYCARLEGGSYWTGYFDLWGRGTLVTVSS VL: EIVMTQSPATLSVSPGERATLSCRASQSVSSNYLAWYQQKPGQAPRLLIYAVSSRATGIPARFSGSGSGTEFTLTISSLQSEDFAVYYCQQYGSSPLTFGGGTKVEIKR ?
(A) > 7.30

Origin of measurements: patent US11021532
